Reference source: patent US12545685B2

Biological target: Mdm2/p53 binding (GST-Mdm2 / His-p53) (Homo sapiens, UniProt Q00987, L33E)
Construct: Mdm2 partial protein having Mdm2 amino acids at positions 25 to 108
Sequence (Q00987 25-108 L33E): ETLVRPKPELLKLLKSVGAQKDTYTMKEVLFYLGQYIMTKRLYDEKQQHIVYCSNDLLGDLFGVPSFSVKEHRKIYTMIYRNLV
Experiment: Mdm2/p53 binding assay (HTRF, His-p53 and GST-Mdm2)
Details: His-p53 (aa 1-132) and GST-Mdm2 (aa 25-108, L33E) 6.25 nM each; 25°C, 1 hour; values given as ranges
Experimental: A protein dilution containing 6.25 nM each of His-p53 (fusion protein of a p53 partial protein having p53 amino acids at positions 1 to 132, with a histidine protein) and GST-Mdm2 (fusion protein of an Mdm2 partial protein having Mdm2 amino acids at positions 25 to 108 with leucine residue 33 substituted by glutamic acid, with glutathione transferase) proteins was prepared using a protein buffer solution (20 mM HEPES pH 7.4, 150 mM NaCl, 0.1% BSA). […]
pIC50: −log10 of the molar value.
Item-by-item account of pIC50
Test Readout: pIC50

INSERT INTO results (compound, test_readout, result) VALUES
  ('O=C(N[C@@H]1CC[C@@H](CO)OC1)[C@@H]1NC2(CC(CF)(CF)C2)[C@@]2(C(=O)Nc3nc(Cl)ccc32)[C@H]1c1cccc(Cl)c1F [Example 84]', 'pIC50', '7.00 to 7.30'),
  ('CC1(C)CCC2(CC1)N[C@@H](C(=O)NC1(C)CC[C@@H](C(=O)O)OC1)[C@H](c1ccnc(Cl)c1F)[C@]21C(=O)Nc2cc(Cl)ccc21 (stereo partly drawn) [Example 188]', 'pIC50', '7.30 to 9.00'),
  ('CC1(C)CCC2(CC1)N[C@@H](C(=O)N[C@@H]1CC[C@@H](c3ncon3)OC1)[C@H](c1cccc(Cl)c1F)[C@]21C(=O)Nc2nc(Cl)ccc21 [Example 62]', 'pIC50', '7.00 to 7.30'),
  ('CN(C)C(=O)[C@@H]1CC[C@@H](NC(=O)[C@@H]2NC3(CC(CF)(CF)C3)[C@@]3(C(=O)Nc4cc(Cl)ccc43)[C@H]2c2cccc(Cl)c2F)CO1 [Example 124]', 'pIC50', '7.30 to 9.00'),
  ('CC(C)(O)[C@@H]1CC[C@@H](NC(=O)[C@@H]2NC3(CC(CF)(CF)C3)[C@@]3(C(=O)Nc4cc(Cl)ccc43)[C@H]2c2cccc(Cl)c2F)CO1 [Example 135]', 'pIC50', '6.30 to 7.00'),
  ('CC(O)[C@@H]1CC[C@@H](NC(=O)[C@@H]2NC3(CCC(C)(C)CC3)[C@@]3(C(=O)Nc4cc(Cl)ccc43)[C@H]2c2ccnc(Cl)c2F)CO1 (single isomer, unassigned) [Example 93]', 'pIC50', '7.00 to 7.30'),
  ('CC1(C)CCC2(CC1)N[C@@H](C(=O)N[C@@H]1CC[C@@H](C(=O)NC3CC3)OC1)[C@H](c1ccnc(Cl)c1F)[C@]21C(=O)Nc2nc(Cl)ccc21 [Example 102]', 'pIC50', '7.30 to 9.00'),
  ('COC[C@@H]1CC[C@@H](NC(=O)[C@@H]2NC3(CC(CF)(CF)C3)[C@@]3(C(=O)Nc4cc(Cl)ccc43)[C@H]2c2cccc(Cl)c2F)CO1 [Example 143]', 'pIC50', '7.00 to 7.30'),
  ('CC1(C)CCC2(CC1)N[C@@H](C(=O)N[C@@H]1CCC(C)(C(=O)O)OC1)[C@H](c1ccnc(Cl)c1F)[C@]21C(=O)Nc2cc(Cl)ccc21 (stereo partly drawn) [Example 186]', 'pIC50', '7.30 to 9.00'),
  ('CCN(C)C(=O)[C@@H]1CC[C@@H](NC(=O)[C@@H]2NC3(CCC(C)(C)CC3)[C@@]3(C(=O)Nc4cc(Cl)ccc43)[C@H]2c2ccnc(Cl)c2F)CO1 [Example 125]', 'pIC50', '7.30 to 9.00'),
  ('CN(C)C(=O)[C@H]1CC[C@H](NC(=O)[C@@H]2NC3(CC(CF)(CF)C3)[C@@]3(C(=O)Nc4cc(Cl)ccc43)[C@H]2c2cc(F)cc(Cl)c2)CC1 (relative stereo) [Example 168]', 'pIC50', '6.30 to 7.00'),
  ('O=C(N[C@@H]1CC[C@@H](CO)OC1)[C@@H]1NC2(CC(CF)(CF)C2)[C@@]2(C(=O)Nc3cc(Cl)ccc32)[C@H]1c1cc(Cl)cc(Cl)c1 [Example 169]', 'pIC50', '7.00 to 7.30'),
  ('COC[C@]1(O)CC[C@@H](NC(=O)[C@@H]2NC3(CCC(C)(C)CC3)[C@@]3(C(=O)Nc4cc(Cl)ccc43)[C@H]2c2ccnc(Cl)c2F)CC1 [Example 61]', 'pIC50', '7.00 to 7.30'),
  ('CC1(C)CCC2(CC1)N[C@@H](C(=O)N[C@@H]1CC[C@@H](C(N)=O)OC1)[C@H](c1ccnc(Cl)c1F)[C@]21C(=O)Nc2cc(Cl)ncc21 [Example 191]', 'pIC50', '7.30 to 9.00'),
  ('CNC(=O)c1cc(Cl)cc([C@H]2[C@H](C(=O)N[C@@H]3CC[C@@H](CO)OC3)NC3(CCC(C)(C)CC3)[C@@]23C(=O)Nc2cc(Cl)ccc23)c1 [Example 27]', 'pIC50', '7.30 to 9.00');
